B1: library; numbered along this chain (parent)
chain: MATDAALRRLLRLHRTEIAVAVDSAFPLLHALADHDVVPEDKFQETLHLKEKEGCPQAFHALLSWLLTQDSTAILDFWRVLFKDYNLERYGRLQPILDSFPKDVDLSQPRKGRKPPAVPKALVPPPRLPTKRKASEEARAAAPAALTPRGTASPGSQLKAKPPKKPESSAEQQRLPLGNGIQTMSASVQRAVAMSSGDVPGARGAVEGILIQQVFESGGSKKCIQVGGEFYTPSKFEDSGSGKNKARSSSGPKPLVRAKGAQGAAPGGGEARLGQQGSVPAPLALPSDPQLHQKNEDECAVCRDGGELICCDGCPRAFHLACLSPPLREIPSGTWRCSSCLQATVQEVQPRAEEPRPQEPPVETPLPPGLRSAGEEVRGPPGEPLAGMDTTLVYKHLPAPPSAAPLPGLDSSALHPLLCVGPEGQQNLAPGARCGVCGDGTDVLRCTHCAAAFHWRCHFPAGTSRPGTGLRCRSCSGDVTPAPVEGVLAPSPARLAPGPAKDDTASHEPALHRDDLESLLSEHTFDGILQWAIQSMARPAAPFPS

- Variants of: B1
- protocol_summary: AIRE transcriptional activation functional score (insulin promoter-GFP; nonsense median 0, synonymous median 1) (normalised score); higher = higher AIRE activity (more reporter activation)
- cond: with insulin promoter-GFP reporter in HEK293
outcome_measure: AIRE transcriptional activation functional score
Give bare numbers.

Hey, can you go through the list below and give me AIRE transcriptional activation functional score for every item?
1. D198V
2. L67D
3. L273Y
4. V118C
5. E207G
6. P200N
7. S135E
8. S168F

Result:
1: 0.978; 2: 0.698; 3: 1.28; 4: 1.25; 5: 1.11; 6: 1.12; 7: 1.38; 8: 1.44

Hey, can you go through the list below and give me AIRE transcriptional activation functional score for every item?
1. S535Y
2. W455A
3. R79Q
4. R433H
5. L511Y
6. G277P
7. R257E
8. P119M

Result:
-1.02
1.1
0.112
0.569
1.19
0.526
1.12
0.545
